System name: Recombinant human JAK2 kinase domain protein (Residues 812-1132) (Homo sapiens, UniProt O60674)
Construct: human JAK2 kinase domain protein (Residues 812-1132)
Sequence (O60674 812-1132): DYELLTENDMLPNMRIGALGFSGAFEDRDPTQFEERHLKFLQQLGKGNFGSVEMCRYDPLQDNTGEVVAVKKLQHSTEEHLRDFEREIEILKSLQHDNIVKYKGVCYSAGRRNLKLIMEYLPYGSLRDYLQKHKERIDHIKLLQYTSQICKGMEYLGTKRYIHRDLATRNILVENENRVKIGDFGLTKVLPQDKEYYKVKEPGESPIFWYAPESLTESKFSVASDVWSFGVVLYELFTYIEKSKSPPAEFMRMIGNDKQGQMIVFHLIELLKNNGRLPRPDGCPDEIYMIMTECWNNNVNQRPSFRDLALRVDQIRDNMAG
Protocol notes: JAK2 biochemical assay (microfluidic mobility shift, peptide phosphorylation)
Assay context: 25 μM ATP, 0.2 nM total JAK2; Ki calculated from Ki app (tight-binding, competitive); read-out: Biochem JAK2 Ki
Measured quantity: Ki (nM)

O=C(Nc1cn(Cc2nnn(CCN3CCOCC3)n2)nc1-c1cc(Cl)ccc1OC(F)F)c1cnn2cccnc12 [Example 2]: 0.29

I = CN(CCN1CC(n2nnc(Cn3cc(NC(=O)c4cnn5cccnc45)c(-c4cc(OC(F)F)ccc4OC(F)F)n3)n2)C1)C(=O)OC(C)(C)C [Example 31]
II = CN1CCC(n2nnnc2Cn2cc(NC(=O)c3cnn4cccnc34)c(-c3cc(OC(F)F)ccc3OC(F)F)n2)C1 (stereo not drawn) [Example 26]
Task item: Looking at I and II , which one comes out lower in Ki terms? Write down the label of the entry you select.
Reply: I
(I: 0.25 nM, II: 0.39 nM)

P = CN1CC(N(C)CCn2nnc(Cn3cc(NC(=O)c4cnn5cccnc45)c(-c4cc(OC(F)F)ccc4OC(F)F)n3)n2)C1 [Example 48]
Q = CN1CCC[C@H]1Cn1nnc(Cn2cc(NC(=O)c3cnn4cccnc34)c(-c3cc(OC(F)F)ccc3OC(F)F)n2)n1 (stereo in doubt) [Example 53]
Task item: Please compare: P and Q . Report which one has the smaller Ki value. Give the label of your selection.
Reply: Q
(Q: 0.32 nM, P: 0.54 nM)

* * *

System name: recombinant human JAK1 kinase domain protein (Residues 854-1154) (Homo sapiens, UniProt P23458)
Construct: human JAK1 kinase domain protein (Residues 854-1154)
Sequence (P23458 854-1154): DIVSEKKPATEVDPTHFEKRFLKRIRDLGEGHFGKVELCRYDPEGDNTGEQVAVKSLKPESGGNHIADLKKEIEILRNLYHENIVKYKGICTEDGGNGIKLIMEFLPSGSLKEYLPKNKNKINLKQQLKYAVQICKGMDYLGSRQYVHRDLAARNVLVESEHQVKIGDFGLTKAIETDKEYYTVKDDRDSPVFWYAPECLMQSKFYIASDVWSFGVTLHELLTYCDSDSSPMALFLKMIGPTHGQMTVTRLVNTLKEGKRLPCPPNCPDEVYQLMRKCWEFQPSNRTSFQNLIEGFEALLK
Protocol notes: JAK1 biochemical assay (microfluidic mobility shift, peptide phosphorylation)
Assay context: 25 μM ATP, 1 nM total JAK1; Ki calculated from Ki app (tight-binding, competitive); read-out: Biochem JAK1 Ki
pKi: −log10 of the molar value.
Measured quantity: pKi

Look over these answered cases.
CSc1ccc(OC(F)F)c(-c2nn(Cc3nnn(CCN)n3)cc2NC(=O)c2cnn3cccnc23)c1: 9.43
CN(C)C1(CCN2CC(n3nnc(Cn4cc(NC(=O)c5cnn6cccnc56)c(-c5cc(OC(F)F)ccc5OC(F)F)n4)n3)C2)CC1: 9.34

A = O=C(Nc1cn(Cc2nnn(CCN3CCOCC3)n2)nc1-c1cc(Cl)ccc1OC(F)F)c1cnn2cccnc12
B = CN1CCN(CCn2nnc(Cn3cc(NC(=O)c4cnn5cccnc45)c(-c4cc(Cl)ccc4OC(F)F)n3)n2)CC1
Task item: Given A and B , report the one with the higher recorded pKi. Indicate your choice by writing its label.
Reply: A

P = NCCN1CCC(n2nnc(Cn3cc(NC(=O)c4cnn5cccnc45)c(-c4cc(OC(F)F)ccc4OC(F)F)n3)n2)CC1
Q = CN(C)CCCN1CC(n2nnc(Cn3cc(NC(=O)c4cnn5cccnc45)c(-c4cc(OC(F)F)ccc4OC(F)F)n3)n2)C1
R = O=C(Nc1cn(Cc2nnnn2C2CNC2)nc1-c1cc(OC(F)F)ccc1OC(F)F)c1cnn2cccnc12
Task item: rank_up(items): orders items by reported pKi in ascending numerical order. Sort and list the labels as requested.
Reply: P, Q, R

I = O=C(Nc1cn(Cc2nnn(CCN3CCNCC3)n2)nc1-c1cc(Cl)ccc1OC(F)F)c1cnn2cccnc12
II = CN1CC(N2CC(n3nnc(Cn4cc(NC(=O)c5cnn6cccnc56)c(-c5cc(OC(F)F)ccc5OC(F)F)n4)n3)C2)C1
Task item: Pick the one with the larger pKi: I vs II Please reply using the label of the selected record.
Reply: II
